system: RXRγ (UniProt P28705)
Sequence (P28705 1-463): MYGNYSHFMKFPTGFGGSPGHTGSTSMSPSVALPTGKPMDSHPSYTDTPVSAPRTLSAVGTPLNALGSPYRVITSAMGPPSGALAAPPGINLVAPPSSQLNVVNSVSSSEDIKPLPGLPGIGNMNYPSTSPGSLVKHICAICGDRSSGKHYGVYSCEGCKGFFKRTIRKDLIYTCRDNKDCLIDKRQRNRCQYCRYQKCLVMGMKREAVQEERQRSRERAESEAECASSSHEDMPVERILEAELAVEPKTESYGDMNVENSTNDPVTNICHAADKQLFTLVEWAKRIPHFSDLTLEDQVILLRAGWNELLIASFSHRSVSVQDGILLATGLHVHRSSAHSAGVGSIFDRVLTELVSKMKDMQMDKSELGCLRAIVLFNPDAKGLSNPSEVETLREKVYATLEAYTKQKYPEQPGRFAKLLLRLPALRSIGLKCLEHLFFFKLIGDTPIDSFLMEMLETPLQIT
assay.notes: ligand binding assay, RXRγ
Design: other: RXRγ; last entry of cell
assay.conditions: last entry of cell, read-out: RXR Bind Ki (nM) γ
measured.quantity: Ki (nM)

Below are worked cases with known answers.
sample.smiles: CC(/C=C/[C@@H]1C[C@]1(C)c1cc(C(C)(C)C)c2c(c1)C(C)(C)CO2)=C\C(=O)O
Ki [nM]: 1.3
//
sample.smiles: CCc1cc([C@@]2(C)C[C@H]2/C=C/C(C)=C/C(=O)O)cc2c1OCC2(C)C
Ki [nM]: 3.2
//
sample.smiles: CC(/C=C/[C@@H]1C[C@]1(C)c1cc(C)c2c(c1)C(C)(C)CO2)=C\C(=O)O
Ki [nM]: 9.9
//
sample.smiles: CC(/C=C/[C@@H]1C[C@]1(C)c1cc(-c2ccccc2)c2c(c1)C(C)(C)CO2)=C\C(=O)O
Ki [nM]: 6.2
//
sample.smiles: CC(/C=C/[C@@H]1C[C@]1(C)c1cc(Cc2ccccc2)c2c(c1)C(C)(C)CO2)=C\C(=O)O
Ki [nM]: 9.2

I. CC(/C=C/[C@@H]1C[C@]1(C)c1cc(CC2CCCCC2)c2c(c1)C(C)(C)CO2)=C\C(=O)O
II. CC(/C=C/[C@@H]1C[C@]1(C)c1cc(-c2ccccc2C)c2c(c1)C(C)(C)CO2)=C\C(=O)O
Exam item: Identify the entry with the smaller Ki: I or II . To answer, give the label that identifies your chosen option.
Marked response: I
